tested.system: PRMT5 (Homo sapiens)
Construct: purchased Viva (custom protein)
Sequence (O14744 whole entry): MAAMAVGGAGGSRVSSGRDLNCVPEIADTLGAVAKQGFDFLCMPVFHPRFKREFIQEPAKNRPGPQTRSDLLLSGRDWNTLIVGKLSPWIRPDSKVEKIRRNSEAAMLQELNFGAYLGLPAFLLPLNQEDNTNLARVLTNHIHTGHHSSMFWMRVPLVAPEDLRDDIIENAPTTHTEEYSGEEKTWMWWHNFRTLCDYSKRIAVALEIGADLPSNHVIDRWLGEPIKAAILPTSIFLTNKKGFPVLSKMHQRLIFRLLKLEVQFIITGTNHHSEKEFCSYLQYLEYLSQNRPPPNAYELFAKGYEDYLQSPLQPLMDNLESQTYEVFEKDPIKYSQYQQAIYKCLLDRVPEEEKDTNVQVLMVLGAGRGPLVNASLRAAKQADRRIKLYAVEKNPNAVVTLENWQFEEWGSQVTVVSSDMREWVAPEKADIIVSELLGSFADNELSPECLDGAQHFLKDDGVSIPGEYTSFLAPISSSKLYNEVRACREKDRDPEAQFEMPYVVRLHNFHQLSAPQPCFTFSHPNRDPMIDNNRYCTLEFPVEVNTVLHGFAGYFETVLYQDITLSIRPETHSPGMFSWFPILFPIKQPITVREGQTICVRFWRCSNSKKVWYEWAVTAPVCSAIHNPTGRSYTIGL
Sequence (Q9BQA1 whole entry partner): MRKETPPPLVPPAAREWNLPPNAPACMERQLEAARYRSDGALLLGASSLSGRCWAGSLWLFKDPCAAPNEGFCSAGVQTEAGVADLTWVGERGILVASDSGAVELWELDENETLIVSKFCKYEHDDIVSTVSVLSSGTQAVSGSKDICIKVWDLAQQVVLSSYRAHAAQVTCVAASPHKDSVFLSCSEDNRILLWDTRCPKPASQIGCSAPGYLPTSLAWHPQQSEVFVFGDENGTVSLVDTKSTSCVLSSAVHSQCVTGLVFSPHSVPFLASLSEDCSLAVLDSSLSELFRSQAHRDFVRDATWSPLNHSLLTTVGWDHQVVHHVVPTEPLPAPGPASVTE
assay: PRMT5 IC50 assay in the presence of MTA as cofactor
Assay type: biochemical
conditions: PRMT5, MTA as cofactor
pIC50: −log10 of the molar value.
property: pIC50

Enquiry: What value of pIC50 has been recorded for this entry: CC(=O)N1CCC(Nc2ccnc(C(=O)NC[C@H](O)CN3CCc4c(ccc(OCc5cnco5)c4C)C3)c2)CC1 [Compound 559]
Return: 6.30 to 7.30

Enquiry: Now consider Cc1ncoc1COc1ccc2c(c1C)CCN(C[C@@H](O)CNC(=O)c1cc(NC3CCC3)nc(OCCN(C)C)c1)C2 [Compound 500] .
Return: 6.30 to 7.30

Enquiry: What about Cc1ncoc1COc1ccc2c(c1Br)CCN(C[C@@H](O)CNC(=O)c1cccc(NC3CCC3)c1)C2 [Compound 354] ?
Return: 5.30 to 6.30

Enquiry: Query Cc1ncoc1COc1ccc2c(c1)CCN(C[C@@H](O)CNC(=O)c1cc(NC3CCC3)nc(N3CCOCC3)c1)C2 [Compound 384] next
Return: 6.30 to 7.30

Enquiry: Now the molecule CC(=O)N1CCC(Nc2cc(C(=O)NC[C@H](O)CN3CCc4c(ccc(OCc5cnnn5C)c4C)C3)ncn2)CC1 [Compound 276]
Return: 5.30 to 6.30

Enquiry: Note, next up: Cc1c(OCc2cnco2)ccc2c1CCN(C[C@@H](O)CNC(=O)c1cc(N[C@H]3CC[C@H](C(=O)N4CCCCC4)CC3)ncn1)C2 [Compound 589]
Return: 6.30 to 7.30

Enquiry: Now give it for CC(=O)N1CCN(c2nc(NC3COC3)cc(C(=O)NC[C@H](O)CN3CCc4c(ccc(OCc5cnco5)c4Cl)C3)n2)CC1 [Compound 300] too.
Return: 6.30 to 7.30
